# system-tested: γ-secretase (Homo sapiens)
# Construct: uses a HEK293 membrane fraction as a source of γ-secretase; endogenous in cells
# test-name: in vitro assay of γ-secretase activity (HEK293 membrane fraction, recombinant APP substrate, Abeta ELISA)
# study-conditions: γ-secretase inhibition; HEK293 membrane fraction solubilized in 0.25% CHAPSO, recombinant human APP C-terminal 100 amino acids substrate, Abeta detected by ELISA
quantity-kind: pIC50
// pIC50 is dimensionless: -log10 of concentration (M)

Reference set (5 entries):
C[C@H](OC(=O)NCCC(F)(F)F)C(=O)N[C@@H]1C(=O)N(CCO)c2ccccc2-c2ccccc21    7.80
O=C(CC(=O)N[C@@H]1C(=O)N(CCOCc2ccccc2)c2ccccc2-c2ccccc21)NCCC(F)(F)F    7.17
O=C(CC(=O)N[C@@H]1C(=O)N(CCOCc2ccccc2)c2ccccc2-c2ccccc21)NCCC(F)(F)C(F)(F)F    7.74
O=C(CC(=O)N[C@@H]1C(=O)N(CCO)c2ccccc2-c2ccccc21)NCC(F)(F)C(F)(F)F    7.72
C[C@@](F)(C(=O)NCC(F)(F)F)C(=O)N[C@@H]1C(=O)N(CCOCc2ccccc2)c2ccccc2-c2ccccc21    8.00

Task item: Complete the entry with pIC50 for CCOC(C(=O)NCC(F)(F)C(F)(F)F)C(=O)N[C@@H]1C(=O)N(CCO)c2ccccc2-c2ccccc21 (single isomer, unassigned; epimer b) [Example 19]
Reply: 8.40

Task item: Annotate the molecule COCCN1C(=O)[C@@H](NC(=O)C(C)(O)C(=O)NCC(F)(F)C(F)(F)F)c2ccccc2-c2ccccc21 (single isomer, unassigned; epimer b) [Example 46] with its measured pIC50.
Reply: 8.70

Task item: Kindly indicate its recorded pIC50. Item: `C[C@](O)(C(=O)NCC(F)(F)F)C(=O)N[C@@H]1C(=O)N(CCOCc2ccccc2)c2ccccc2-c2ccccc21`
Reply: 8.10

Task item: Consider the molecule `C[C@@](F)(C(=O)NCCC(F)(F)F)C(=O)N[C@@H]1C(=O)N(CCO)c2ccccc2-c2ccccc21` . State its measured pIC50.
Reply: 8.10

Task item: Provide pIC50 value for the following molecule: `C[C@H](OC(=O)NCC(F)(F)C(F)(F)F)C(=O)N[C@@H]1C(=O)N(CCOCc2ccccc2)c2ccccc2-c2ccccc21`
Reply: 7.96

Task item: Identify measured pIC50 associated with CC(O)(C(=O)NCC(F)(F)C(F)(F)F)C(=O)N[C@@H]1C(=O)N(CCO)c2ccccc2-c2ccccc21 (some centres unmarked) [Example 15]
Reply: 9.00
